Entry source: paper doi:10.1101/2020.11.09.375162v1

measurement.target: mouse CB2 receptor (mCB2) (Mus musculus, UniProt P47936)
Sequence (P47936 whole entry): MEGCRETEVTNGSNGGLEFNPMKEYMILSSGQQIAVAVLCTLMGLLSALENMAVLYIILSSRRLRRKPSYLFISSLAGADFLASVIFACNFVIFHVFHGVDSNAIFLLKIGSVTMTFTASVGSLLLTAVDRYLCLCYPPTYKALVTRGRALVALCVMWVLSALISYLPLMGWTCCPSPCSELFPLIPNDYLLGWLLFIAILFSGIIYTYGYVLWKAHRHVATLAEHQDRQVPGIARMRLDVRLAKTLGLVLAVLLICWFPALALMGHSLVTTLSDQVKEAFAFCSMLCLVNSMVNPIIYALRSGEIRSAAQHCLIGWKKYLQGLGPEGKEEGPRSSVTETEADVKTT
assay.protocol: cAMP assay, CHO cells
Assay type: cell-based
pEC50: −log10 of the molar value.

{"compound.structure.string": "CC(C)(C)c1noc(-c2ccc(C3CC3)c(Cc3ccc(F)cc3)n2)n1", "measurement.target": "mouse CB2 receptor (mCB2) (Mus musculus, UniProt P47936)", "pEC50": 8.39}

###

measurement.target: human CB1 receptor (hCB1) (Homo sapiens, UniProt P21554)
Sequence (P21554 whole entry): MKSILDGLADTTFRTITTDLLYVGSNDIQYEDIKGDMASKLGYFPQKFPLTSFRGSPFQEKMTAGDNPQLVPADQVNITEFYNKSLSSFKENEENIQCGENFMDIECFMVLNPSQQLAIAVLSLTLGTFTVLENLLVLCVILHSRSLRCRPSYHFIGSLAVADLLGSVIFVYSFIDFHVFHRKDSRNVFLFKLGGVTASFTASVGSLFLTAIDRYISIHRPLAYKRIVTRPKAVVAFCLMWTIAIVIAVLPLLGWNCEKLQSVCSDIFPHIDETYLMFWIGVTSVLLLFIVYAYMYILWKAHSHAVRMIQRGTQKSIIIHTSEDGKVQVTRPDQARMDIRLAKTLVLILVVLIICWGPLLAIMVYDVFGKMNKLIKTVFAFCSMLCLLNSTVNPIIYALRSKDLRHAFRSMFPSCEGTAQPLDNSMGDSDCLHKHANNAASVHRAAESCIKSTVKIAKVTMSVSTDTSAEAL
assay.protocol: PathHunter beta-arrestin recruitment, CHO-K1
Assay type: cell-based
measured.quantity: EC50

{"compound.structure.string": "CCCCCCC(C)(C)c1cc(OC)c([C@@H]2C=C(CO)[C@@H]3C[C@H]2C3(C)C)c(OC)c1", "reported.measurement": "> 10 µM"}

###

The reader will find reported Emax values listed item by item below.
measurement.target: mouse CB2 receptor (mCB2) (Mus musculus)
assay.protocol: cell-based
measurement.context: read-out: cAMP Emax mCB2

{"compound.structure.string": "CC(C)(C)c1noc(-c2ccc(C3CC3)c(Cc3ccc(F)cc3)n2)n1", "Emax, %": 45}
{"compound.structure.string": "OCCSc1nc(N2CCC(F)(F)C2)c2nnn(Cc3ccccc3Cl)c2n1", "Emax, %": 92}
{"compound.structure.string": "CN1CCN(c2nc(C(C)(C)C)nc3c2nnn3Cc2ccccc2Cl)CC1", "Emax, %": 80}
{"compound.structure.string": "CCOC(=O)[C@H](CC(C)C)NC(=O)c1ccc(C2CC2)c(Cc2ccc(F)cc2)n1", "Emax, %": 23}
{"compound.structure.string": "O=S(=O)(Cc1ccccc1)c1nc(N2CCC(F)(F)C2)c2nnn(Cc3ccccc3Cl)c2n1", "Emax, %": 24}
{"compound.structure.string": "CCOC(=O)C(CC)(CC)NC(=O)c1ccc(N2CCCC2)c(OCC2CC2)n1", "Emax, %": 61}

###

measurement.target: human CB2 receptor (hCB2) (Homo sapiens, UniProt P34972)
Sequence (P34972 whole entry): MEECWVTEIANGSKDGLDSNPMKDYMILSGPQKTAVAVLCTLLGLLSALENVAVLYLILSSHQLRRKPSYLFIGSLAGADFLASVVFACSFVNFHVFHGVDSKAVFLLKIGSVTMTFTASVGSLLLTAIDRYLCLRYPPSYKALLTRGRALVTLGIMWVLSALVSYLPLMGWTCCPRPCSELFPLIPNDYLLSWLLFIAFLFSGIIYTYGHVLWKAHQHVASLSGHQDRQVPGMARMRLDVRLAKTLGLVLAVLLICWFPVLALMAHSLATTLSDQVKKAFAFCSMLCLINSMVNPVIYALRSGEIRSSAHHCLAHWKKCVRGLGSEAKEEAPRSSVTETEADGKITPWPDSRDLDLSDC
assay.protocol: cell-based
measurement.context: read-out: cAMP Emax hCB2
Label rule, in plain words: Emax of 90% and up is T, under 90% is F.

{"compound.structure.string": "CCOC(=O)[C@H](CC(C)C)NC(=O)c1ccc(C2CC2)c(Cc2ccc(F)cc2)n1", "measurement.target": "human CB2 receptor (hCB2) (Homo sapiens, UniProt P34972)", "label.value": "F"}
{"compound.structure.string": "CN1CCN(c2nc(C(C)(C)C)nc3c2nnn3Cc2ccccc2Cl)CC1", "measurement.target": "human CB2 receptor (hCB2) (Homo sapiens, UniProt P34972)", "label.value": "T"}
{"compound.structure.string": "CC(C)(C)c1noc(-c2ccc(C3CC3)c(Cc3ccc(F)cc3)n2)n1", "measurement.target": "human CB2 receptor (hCB2) (Homo sapiens, UniProt P34972)", "label.value": "F"}
{"compound.structure.string": "O=S(=O)(Cc1ccccc1)c1nc(N2CCC(F)(F)C2)c2nnn(Cc3ccccc3Cl)c2n1", "measurement.target": "human CB2 receptor (hCB2) (Homo sapiens, UniProt P34972)", "label.value": "F"}
{"compound.structure.string": "OCCSc1nc(N2CCC(F)(F)C2)c2nnn(Cc3ccccc3Cl)c2n1", "measurement.target": "human CB2 receptor (hCB2) (Homo sapiens, UniProt P34972)", "label.value": "F"}
